Data origin, for the record: the supplement of paper PMC10065799

# experimentalSystem: Fyn (UniProt P06241)
# Sequence (P06241 whole entry, looked up): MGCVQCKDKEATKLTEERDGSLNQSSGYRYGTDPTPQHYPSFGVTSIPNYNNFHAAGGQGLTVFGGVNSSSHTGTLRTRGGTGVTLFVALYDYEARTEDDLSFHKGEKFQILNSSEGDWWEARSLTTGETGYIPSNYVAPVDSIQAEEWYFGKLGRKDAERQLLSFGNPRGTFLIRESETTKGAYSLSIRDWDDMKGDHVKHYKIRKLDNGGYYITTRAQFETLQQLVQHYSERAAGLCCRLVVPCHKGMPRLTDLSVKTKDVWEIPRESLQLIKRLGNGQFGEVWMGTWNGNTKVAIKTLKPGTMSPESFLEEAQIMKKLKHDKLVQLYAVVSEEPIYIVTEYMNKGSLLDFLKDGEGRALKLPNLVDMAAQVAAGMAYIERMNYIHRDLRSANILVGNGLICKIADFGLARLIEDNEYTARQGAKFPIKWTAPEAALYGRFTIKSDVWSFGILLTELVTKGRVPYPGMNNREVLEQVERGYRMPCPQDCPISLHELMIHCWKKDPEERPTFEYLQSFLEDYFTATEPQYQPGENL
# assayText: phosphorylation enrichment, bacterial display (enrichment ratio); higher = better substrate or ligand; peptides without Tyr show the background
Hi there, I'd appreciate the recorded phosphorylation enrichment for every entry that follows.
One number for each entry.

# return phosphorylation enrichment for each item in the list
1. FKEDPYLVVNP [MCM6_Y810_E806K_YF]
2. WVYNHYRWFIW [BRCA2_Y2624_I2627F]
3. TEYIQYMRRKN [MAX_Y73]
4. TQRPFYKGGGG [TYROBP_Y112_YF]
5. RAMPVYKKAEH [TP63_Y231]

OUT:
1: 1.06; 2: 0.441; 3: 0.468; 4: 0.314; 5: 0.337

# return phosphorylation enrichment for each item in the list
1. CSTIHYNFMCN [TP53_Y234_T230S_YF]
2. ADAHHYLCKEV [JAK2_Y382]
3. NPQKPYFIRLF [WAS_Y83_S82P_YF]
4. PQEVTYAQLDH [KIR3DL2_Y398]
5. RILENYGADID [DNAH5_Y596_L591R]
6. DGFIDYAEFAK [MCFD2_Y138_YF]
7. DFLEKYFKFGS [NNMT_Y24_YF]
8. TNGFTCGSSHQ [MANEA_Y331_Y331C]

OUT:
1. 0.476
2. 0.485
3. 0.438
4. 9.11
5. 0.726
6. 0.674
7. 0.437
8. 0.618

###

# experimentalSystem: EPHB1 (UniProt P54762)
# Sequence (P54762 whole entry, looked up): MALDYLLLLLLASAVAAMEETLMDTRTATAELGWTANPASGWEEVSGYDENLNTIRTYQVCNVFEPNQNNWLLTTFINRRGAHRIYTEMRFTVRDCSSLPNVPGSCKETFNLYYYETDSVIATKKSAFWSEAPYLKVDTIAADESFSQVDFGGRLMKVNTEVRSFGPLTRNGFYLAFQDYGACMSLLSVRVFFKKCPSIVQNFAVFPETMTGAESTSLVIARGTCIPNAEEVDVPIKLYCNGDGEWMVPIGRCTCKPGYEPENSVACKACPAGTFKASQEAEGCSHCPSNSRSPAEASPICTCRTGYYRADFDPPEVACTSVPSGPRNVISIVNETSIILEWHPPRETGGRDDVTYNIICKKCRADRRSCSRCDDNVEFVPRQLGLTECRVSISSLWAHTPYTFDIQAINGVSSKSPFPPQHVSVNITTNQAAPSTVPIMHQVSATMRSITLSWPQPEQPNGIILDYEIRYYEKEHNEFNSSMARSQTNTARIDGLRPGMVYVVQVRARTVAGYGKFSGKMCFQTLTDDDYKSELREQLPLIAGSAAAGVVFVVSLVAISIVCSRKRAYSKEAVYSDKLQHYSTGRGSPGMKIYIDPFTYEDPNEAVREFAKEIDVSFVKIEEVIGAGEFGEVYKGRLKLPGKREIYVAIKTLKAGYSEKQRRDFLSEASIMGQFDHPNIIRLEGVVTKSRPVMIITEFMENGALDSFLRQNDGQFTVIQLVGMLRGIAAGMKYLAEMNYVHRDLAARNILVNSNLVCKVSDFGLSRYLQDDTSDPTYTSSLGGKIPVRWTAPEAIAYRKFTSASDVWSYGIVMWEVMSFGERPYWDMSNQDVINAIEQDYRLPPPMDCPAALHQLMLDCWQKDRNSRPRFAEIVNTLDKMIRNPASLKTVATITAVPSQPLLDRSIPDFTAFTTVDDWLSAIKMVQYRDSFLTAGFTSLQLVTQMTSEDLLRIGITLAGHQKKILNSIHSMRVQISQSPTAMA
# assayText: phosphorylation enrichment, bacterial display (enrichment ratio); higher = better substrate or ligand; peptides without Tyr show the background
Assign class by phosphorylation enrichment: not lower than 0.7 means met; lower than 0.7 means not met.

* IGRWVYPLTPE [EIF2B5_Y319_R315G] | not met

IN: I'd appreciate it if you could say whether GISDEYHVIWH [GCDH_Y398_R402W] has phosphorylation enrichment at least equal to 0.7.
OUT: met

IN: I'd appreciate it if you could say whether NHQFDYTFHWT [CSNK1A1_Y294_D297H_YF] has phosphorylation enrichment at least equal to 0.7.
OUT: met

IN: I'd appreciate it if you could say whether SMAKYYASGIA [ACADSB_Y373_E376G] has phosphorylation enrichment at least equal to 0.7.
OUT: not met

IN: I'd appreciate it if you could say whether CKLYQYYLDHL [ATRX_Y1849] has phosphorylation enrichment at least equal to 0.7.
OUT: met

IN: I'd appreciate it if you could say whether RPGGRYPVARR [SHANK3_Y1569_S1566G] has phosphorylation enrichment at least equal to 0.7.
OUT: not met

IN: I'd appreciate it if you could say whether PINLYYLMDLS [ITGB2_Y131_D128N] has phosphorylation enrichment at least equal to 0.7.
OUT: met

IN: I'd appreciate it if you could say whether LLREWYLQDPY [SIX3_Y225] has phosphorylation enrichment at least equal to 0.7.
OUT: met

IN: I'd appreciate it if you could say whether SVKVYYKKCWF [EPHA7_Y202_S207F] has phosphorylation enrichment at least equal to 0.7.
OUT: not met

IN: I'd appreciate it if you could say whether SEKIVYGHVDD [ACO2_Y71_L74V] has phosphorylation enrichment at least equal to 0.7.
OUT: not met

IN: I'd appreciate it if you could say whether KLFYIYTSGTT [SLC27A4_Y245] has phosphorylation enrichment at least equal to 0.7.
OUT: not met

IN: I'd appreciate it if you could say whether KLLLKYSFHDV [RNF213_Y4141] has phosphorylation enrichment at least equal to 0.7.
OUT: not met

###

Hi there, I'd appreciate the recorded SH2 binding enrichment for every entry that follows.
# experimentalSystem: Grb2 SH2 (UniProt P62993)
# Sequence (P62993 whole entry, looked up): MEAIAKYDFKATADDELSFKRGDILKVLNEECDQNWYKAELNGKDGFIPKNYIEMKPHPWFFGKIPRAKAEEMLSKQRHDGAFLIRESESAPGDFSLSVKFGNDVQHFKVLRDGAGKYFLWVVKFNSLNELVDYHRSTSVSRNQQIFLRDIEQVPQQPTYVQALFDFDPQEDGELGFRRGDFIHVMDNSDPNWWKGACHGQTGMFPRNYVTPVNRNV
# assayText: SH2 binding enrichment of the phosphorylated peptide, bacterial display (enrichment ratio); higher = better substrate or ligand; peptides without Tyr show the background
Give bare numbers.

The cases that follow already have their SH2 binding enrichment on record.
- HRGYLYLAIEY [TEK_Y899]: 1.24
- DRPASYKKKSM [PDGFRA_Y768]: 0.803
- EFNINYNNELP [THG1L_Y228]: 0.774
- EFGEVYKGMLK [EPHA2_Y628]: 1.11
- AVLALYNSTRD [TGFB1_Y81]: 0.835

# return SH2 binding enrichment for each item in the list
1. ASELGYQFQAI [UROD_Y133_V134Q]
2. GKFHMYVAVWT [F13A1_Y161_R159H]
3. FTRNFYVQAVL [CYBA_Y88_R90Q_YF]

OUT:
0.795
1.03
0.837

# return SH2 binding enrichment for each item in the list
1. LKALHYMAQTS [SACS_Y3367_V3369A]
2. PEVCDYGLGGG [GSTO1_Y239_A236V]
3. RLCQDYDTIGP [ANK1_Y1073]
4. TFGNLYGSRKQ [YIPF7_Y59_A54T_YF]
5. EELLRYAIVTP [POC5_Y37_H36R]
6. RLPINYTTRRI [LAMA2_Y2894_G2889R]
7. SVEELYAIPPD [PEAK1_Y797]

OUT:
0.861
1.05
1.35
0.851
0.871
0.76
0.746

# return SH2 binding enrichment for each item in the list
1. NVDGKYSFLKV [GRM3_Y478_G475D_YF]
2. HEEKVYLSRGD [CRACR2A_Y141]

OUT:
1: 1.06; 2: 0.812

# return SH2 binding enrichment for each item in the list
1. DFPGIYSGFDD [POLR1C_Y33_N32I_YF]
2. RRVLVYGGRGA [QDPR_Y16]
3. MAPQMYESHLP [NCAPD2_Y6_F8S]
4. FEGAIYRKDIG [GART_Y417_V421I]
5. SVTCTYSPALN [TP53_Y126]
6. PPTFRYERGSR [INPPL1_Y663_YF]

OUT:
0.707
0.608
0.76
0.903
0.766
0.503

IN: Look up SH2 binding enrichment with Grb2 SH2 (UniProt P62993) for this sequence: IGEGTYRQVYK [CDK13_Y716_G717R]
OUT: 0.874

###

Hi there, I'd appreciate the recorded phosphorylation enrichment for every entry that follows.
# experimentalSystem: EPHB2 (UniProt P29323)
# Sequence (P29323 whole entry, looked up): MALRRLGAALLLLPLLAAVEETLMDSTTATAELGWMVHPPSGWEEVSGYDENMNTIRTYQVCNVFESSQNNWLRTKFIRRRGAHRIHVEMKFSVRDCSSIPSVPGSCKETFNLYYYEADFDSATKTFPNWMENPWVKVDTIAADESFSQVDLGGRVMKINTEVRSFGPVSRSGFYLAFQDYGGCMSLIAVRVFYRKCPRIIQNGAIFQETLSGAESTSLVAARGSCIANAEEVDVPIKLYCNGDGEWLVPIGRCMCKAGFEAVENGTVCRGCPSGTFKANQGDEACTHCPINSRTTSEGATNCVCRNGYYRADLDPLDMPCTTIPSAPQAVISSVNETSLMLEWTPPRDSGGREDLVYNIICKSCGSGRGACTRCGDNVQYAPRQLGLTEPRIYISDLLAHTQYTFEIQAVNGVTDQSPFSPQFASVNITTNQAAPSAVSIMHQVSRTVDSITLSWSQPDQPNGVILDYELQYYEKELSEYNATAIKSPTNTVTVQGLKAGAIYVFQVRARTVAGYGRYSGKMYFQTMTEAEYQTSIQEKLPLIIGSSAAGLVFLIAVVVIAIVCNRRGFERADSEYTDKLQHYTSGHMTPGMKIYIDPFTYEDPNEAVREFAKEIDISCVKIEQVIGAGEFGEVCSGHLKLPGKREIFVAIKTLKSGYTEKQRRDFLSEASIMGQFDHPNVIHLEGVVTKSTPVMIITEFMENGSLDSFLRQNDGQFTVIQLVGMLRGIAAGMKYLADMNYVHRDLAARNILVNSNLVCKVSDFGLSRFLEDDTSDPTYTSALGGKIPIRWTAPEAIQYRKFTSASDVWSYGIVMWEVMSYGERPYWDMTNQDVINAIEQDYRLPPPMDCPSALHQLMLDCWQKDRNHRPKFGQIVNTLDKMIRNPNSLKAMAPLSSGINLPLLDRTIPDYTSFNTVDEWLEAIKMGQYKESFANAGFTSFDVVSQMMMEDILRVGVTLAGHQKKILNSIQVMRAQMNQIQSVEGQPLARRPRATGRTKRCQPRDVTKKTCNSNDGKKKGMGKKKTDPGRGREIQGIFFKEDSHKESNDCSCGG
# assayText: phosphorylation enrichment, bacterial display (enrichment ratio); higher = better substrate or ligand; peptides without Tyr show the background
Answers are plain numbers.

• KLGDVYVNDAF [PGK1_Y161] = 0.571
• YPLELYERVRM [PRKCG_Y312] = 1.18
• DVFLKHLNFAT [PDE6B_Y212_Y212H] = 0.545
• GINDDYGQLKN [NBN_Y679] = 0.514
• PDDPNYSLVDD [PSTPIP2_Y323] = 1.49
• HEKRAYICAHP [ACAD9_Y611_L606H] = 0.434

# return phosphorylation enrichment for each item in the list
1. KRISCYEARYQ [PFKFB3_Y194_S197R]
2. HGDDDYDDPEL [CLNK_Y69_S65G]

OUT:
1. 0.415
2. 0.753

# return phosphorylation enrichment for each item in the list
1. EADRKYEEVAH [TPM3_Y163_R168H]
2. EDNPEYMRLRN [ADD2_Y31_D28N]
3. ALIKAYVKAVA [SMN1_Y43_D44V]

OUT:
1: 0.423; 2: 0.515; 3: 0.534

# return phosphorylation enrichment for each item in the list
1. DLNATYCTIQG [U2SURP_Y634_R635C]
2. VFFDLYGGEKF [PTPN11_Y66_D61V_YF]
3. LERYIYNREEF [HLA-DPB1_Y59]

OUT:
[5.72, 0.596, 1.22]

###

# experimentalSystem: Grb2 SH2 (UniProt P62993)
# assayText: SH2 binding enrichment of the phosphorylated peptide, bacterial display (enrichment ratio); higher = better substrate or ligand; peptides without Tyr show the background
measurementName: SH2 binding enrichment
Answers are plain numbers.

• KLQKYYRQNPD [EHHADH_Y683] = 0.948

# return SH2 binding enrichment for each item in the list
1. SVVVCYEPPEV [TP53_Y220_P219C]
2. RLKAKYPAATG [GLI3_Y933_A934P]
3. KNRDVYSSDYF [USP24_Y2134]
4. WDLSEYSYKDP [ITGA3_Y237]
5. RFMELYDLNRD [BBS2_Y648_YF]

OUT:
0.814
1.48
0.796
0.932
1.02

# return SH2 binding enrichment for each item in the list
1. MSLDQYSPSFP [FGFR1_Y776_P772S]
2. ARVANYHRDGP [CAT_Y386_Q387H]
3. RIRRRYCQVLN [IQCF1_Y144]

OUT:
[0.825, 0.776, 0.666]

# return SH2 binding enrichment for each item in the list
1. RILENYGADID [DNAH5_Y596_L591R]
2. LHSEAYLKFNE [PBRM1_Y1610_I1614N_YF]

OUT:
[0.525, 1.34]

# return SH2 binding enrichment for each item in the list
1. GCRSKHVGLWG [KCNQ1_Y184_Y184H]
2. NIRKKYYRAIL [CHD7_Y1217_Q1214R]
3. WAFNLYDINKF [KCNIP3_Y174_D179Y_YF]
4. LHRAHYDLRHT [AHSG_Y314]
5. EKLIQYCQSKG [AKR1B1_Y199]

OUT:
1: 1.17; 2: 0.599; 3: 0.905; 4: 1.83; 5: 0.854
